Ref: patent US20260176249A1

# ASSAY_NAME: Metabolic stability in rat liver microsomes
# Type: in vitro ADME
# CONDITION_PARAMETERS: rat, pH 7.4, read-out: CLint(mic)
# Method: a. Preparation of phosphate buffer: The phosphate buffer powder was dissolved in 100 mL of pure water to prepare a phosphate buffer solution with a pH of 7.4 and a concentration of 100 mM, which was stored in a 4° C. refrigerator for later use. b. […] f. […] After centrifugation, the supernatant was removed, diluted with water according to the needs of each compound, and analyzed by LC-MS. […] T1/2 and CLint(mic) were calculated by the following formula. […]
VALUE_KIND: microsomal CLint at 1 µM
Write down the value, and be sure its unit follows.

Give microsomal CLint at 1 µM for each of the items listed below.
1. CN1CCN(c2ccc(OC(F)(F)F)c(Nc3ncc4c(n3)-c3c(c(C(N)=O)nn3CCO)CC4)c2)CC1 [Onvansertib, reference compound]
2. CN1CCN(c2ccc(OC(F)(F)F)c(Nc3ncc4c(n3)-c3c(c(C(=O)NN)nn3CCO)CC4)c2)CC1
3. CN1CCN(c2ccc(OC(F)(F)F)c(Nc3ncc4ccc5c(C(N)=O)nn(CCF)c5c4n3)c2)CC1
4. CCc1sc(C(N)=O)c2c1-c1nc(Nc3cc(N4CCN(C)CC4)ccc3OC(F)(F)F)ncc1CC2

Response:
1: 61 µL/min/mg; 2: 41.4 µL/min/mg; 3: 281 µL/min/mg; 4: 603 µL/min/mg
